Cited source for all entries: patent US20260242478A1

# measurement_target: T1, Anti-CD28 Fab (SEQ ID NOs: 696, 697)
# T1 construct: In the phage ELISA the Fab was biotinylated and captured on neutravidin coated plates
# T1 sequence (VH, as listed by the source, chain 1 of 2): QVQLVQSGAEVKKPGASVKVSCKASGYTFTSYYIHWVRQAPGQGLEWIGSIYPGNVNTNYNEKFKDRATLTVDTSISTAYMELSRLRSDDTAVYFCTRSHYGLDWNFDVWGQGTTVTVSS
# T1 sequence (VL, as listed by the source, chain 2 of 2): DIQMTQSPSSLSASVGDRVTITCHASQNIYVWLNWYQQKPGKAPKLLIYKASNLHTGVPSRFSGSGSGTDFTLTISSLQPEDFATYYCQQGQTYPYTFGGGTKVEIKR
# method_description: phage binding ELISA on captured anti-CD28 Fab, wells pre-incubated with CD28 antigen as competitor
outcome_measure: Anti-CD28 Fab signal in the presence of CD28 (phage binding ELISA)
Answer with a bare number; do not write a unit.

Here is how some binders turned out for Anti-CD28 Fab signal in the presence of CD28 (phage binding ELISA).
# binder, reported_measurement
rows = [
    ("TCSAGATYIWPMCF (Tested as clonal phage supernatant; not shown: fused to the pIII filament of the bacteriophage) [Phage-1442 (peptide-92 library clone, SEQ ID NO: 1738)]", 0.08),
    ("TCSAGAMWTWPYCF (Tested as clonal phage supernatant; not shown: fused to the pIII filament of the bacteriophage) [Phage-1436 (peptide-92 library clone, SEQ ID NO: 1732)]", 0.08),
    ("TCSAGAHYPWPDCI (Tested as clonal phage supernatant; not shown: fused to the pIII filament of the bacteriophage) [Phage-1432 (peptide-92 library clone, SEQ ID NO: 1728)]", 0.07),
]

Now examine the next entry.
Problem: For the binder shown here, TCRAGATYNWPFCL (Tested as clonal phage supernatant; not shown: fused to the pIII filament of the bacteriophage) [Phage-1443 (peptide-92 library clone, SEQ ID NO: 1739)] , give the reported Anti-CD28 Fab signal in the presence of CD28 (phage binding ELISA).
Solution: 0.07
